- System: CCRF-CEM cells
- test: Test C: anti-cancer assay, CCRF-CEM cell viability by MTS reagent
- Assay type: cell-based, human
- experimental-context: 48 hr incubation at 37° C., MTS reagent 4 hr, absorbance at 490 nm, triplicate

molecule | IC50 [µM]
Nc1ncnc2c1ncn2[C@@H]1O[C@H](CO)[C@@H](O)[C@@H]1O [Ara-A, 9-beta-D-arabinofuranosyladenosine] | 384
